# COND: in methanol, 288.15 K
ASSAY_READOUT: solubility (mole fraction)

* NC(N)=S | 0.0471

----------
# COND: in ethanol, 288.15 K
ASSAY_READOUT: solubility (mole fraction)

- NC(N)=S: 0.02

----------
# COND: in isopropanol, 283.15 K
ASSAY_READOUT: solubility (mole fraction)

* NC(N)=S | 0.0133

----------
# COND: in methyl acetate, 288.15 K
ASSAY_READOUT: solubility (mole fraction)

* NC(N)=S | 0.00628

----------
# COND: in methanol, 293.15 K
ASSAY_READOUT: solubility (mole fraction)

* NC(N)=S | 0.0521

----------
# COND: in 2-butanone, 283.15 K
ASSAY_READOUT: solubility (mole fraction)

- NC(N)=S: 0.0135

----------
# COND: in isopropanol, 288.15 K
ASSAY_READOUT: solubility (mole fraction)

* NC(N)=S | 0.0151

----------
# COND: in isobutanol, 308.15 K
ASSAY_READOUT: solubility (mole fraction)

- NC(N)=S: 0.0171

----------
# COND: in water, 323.15 K
ASSAY_READOUT: solubility (mole fraction)

- NC(N)=S: 0.102

----------
# COND: in ethyl acetate, 323.15 K
ASSAY_READOUT: solubility (mole fraction)

- NC(N)=S: 0.00814

----------
# COND: in methyl acetate, 303.15 K
ASSAY_READOUT: solubility (mole fraction)

* NC(N)=S | 0.00814

----------
# COND: in acetonitrile, 313.15 K
ASSAY_READOUT: solubility (mole fraction)

- NC(N)=S: 0.016

----------
# COND: in methyl acetate, 318.15 K
ASSAY_READOUT: solubility (mole fraction)

- NC(N)=S: 0.0102

----------
# COND: in acetone, 323.15 K
ASSAY_READOUT: solubility (mole fraction)

• NC(N)=S = 0.0482

----------
# COND: in acetonitrile, 288.15 K
ASSAY_READOUT: solubility (mole fraction)

- NC(N)=S: 0.00982

----------
# COND: in isobutanol, 323.15 K
ASSAY_READOUT: solubility (mole fraction)

• NC(N)=S = 0.0251

----------
# COND: in ethanol, 323.15 K
ASSAY_READOUT: solubility (mole fraction)

• NC(N)=S = 0.0442

----------
# COND: in 2-butanone, 313.15 K
ASSAY_READOUT: solubility (mole fraction)

• NC(N)=S = 0.0234

----------
# COND: in isobutanol, 313.15 K
ASSAY_READOUT: solubility (mole fraction)

* NC(N)=S | 0.0189

----------
# COND: in isopropanol, 323.15 K
ASSAY_READOUT: solubility (mole fraction)

• NC(N)=S = 0.0344

----------
# COND: in acetone, 298.15 K
ASSAY_READOUT: solubility (mole fraction)

• NC(N)=S = 0.0389

----------
# COND: in acetonitrile, 283.15 K
ASSAY_READOUT: solubility (mole fraction)

• NC(N)=S = 0.00865

----------
# COND: in n-propanol, 308.15 K
ASSAY_READOUT: solubility (mole fraction)

* NC(N)=S | 0.0231

----------
# COND: in n-butanol, 298.15 K
ASSAY_READOUT: solubility (mole fraction)

* NC(N)=S | 0.015

----------
# COND: in n-butanol, 323.15 K
ASSAY_READOUT: solubility (mole fraction)

• NC(N)=S = 0.0274

----------
# COND: in acetonitrile, 318.15 K
ASSAY_READOUT: solubility (mole fraction)

• NC(N)=S = 0.018

----------
# COND: in 2-butanone, 293.15 K
ASSAY_READOUT: solubility (mole fraction)

* NC(N)=S | 0.0171

----------
# COND: in 2-butanone, 318.15 K
ASSAY_READOUT: solubility (mole fraction)

• NC(N)=S = 0.0247

----------
# COND: in methanol, 313.15 K
ASSAY_READOUT: solubility (mole fraction)

- NC(N)=S: 0.0761

----------
# COND: in water, 308.15 K
ASSAY_READOUT: solubility (mole fraction)

* NC(N)=S | 0.0592

----------
# COND: in acetonitrile, 323.15 K
ASSAY_READOUT: solubility (mole fraction)

* NC(N)=S | 0.0196

----------
# COND: in acetone, 318.15 K
ASSAY_READOUT: solubility (mole fraction)

• NC(N)=S = 0.0465

----------
# COND: in water, 293.15 K
ASSAY_READOUT: solubility (mole fraction)

* NC(N)=S | 0.0325

----------
# COND: in methyl acetate, 313.15 K
ASSAY_READOUT: solubility (mole fraction)

* NC(N)=S | 0.00951

----------
# COND: in acetone, 283.15 K
ASSAY_READOUT: solubility (mole fraction)

* NC(N)=S | 0.0348

----------
# COND: in isobutanol, 318.15 K
ASSAY_READOUT: solubility (mole fraction)

* NC(N)=S | 0.0224

----------
# COND: in methanol, 283.15 K
ASSAY_READOUT: solubility (mole fraction)

• NC(N)=S = 0.0423

----------
# COND: in ethyl acetate, 318.15 K
ASSAY_READOUT: solubility (mole fraction)

• NC(N)=S = 0.00769

----------
# COND: in acetonitrile, 298.15 K
ASSAY_READOUT: solubility (mole fraction)

• NC(N)=S = 0.012

----------
# COND: in ethyl acetate, 303.15 K
ASSAY_READOUT: solubility (mole fraction)

• NC(N)=S = 0.0062

----------
# COND: in acetonitrile, 308.15 K
ASSAY_READOUT: solubility (mole fraction)

- NC(N)=S: 0.0146

----------
# COND: in n-butanol, 283.15 K
ASSAY_READOUT: solubility (mole fraction)

- NC(N)=S: 0.0104

----------
# COND: in acetonitrile, 293.15 K
ASSAY_READOUT: solubility (mole fraction)

- NC(N)=S: 0.0107

----------
# COND: in isobutanol, 298.15 K
ASSAY_READOUT: solubility (mole fraction)

* NC(N)=S | 0.0132

----------
# COND: in ethanol, 283.15 K
ASSAY_READOUT: solubility (mole fraction)

* NC(N)=S | 0.0172

----------
# COND: in n-butanol, 288.15 K
ASSAY_READOUT: solubility (mole fraction)

• NC(N)=S = 0.0121

----------
# COND: in isopropanol, 313.15 K
ASSAY_READOUT: solubility (mole fraction)

* NC(N)=S | 0.0273
